Target: T1, SARS-CoV-2 spike protein receptor-binding domain (RBD) (SARS-CoV-2, strain  …, UniProt P0DTC2)
T1 construct: also called SARS-CoV-2 RBD; SARS RBD; source: provided by Roland Strong, Fred Hutchinson Cancer Research Center
Assay: ELISA
Details: both partners purified
// assign yes (1) if EC50 falls strictly below 3 nM, else no (0) (ties count as no (0))

Binder: tcTRP9_(3)-VHH679_(3) (VHH, also called tcTRP9x3_VHH6793; construct 679; source: E. coli BL21(DE3)-RIL, purified (Ni-NTA, dialysis into 1x PBS)) VHH: QVQLQESGGGLVQAGGSLRLSCAASGRTFSEYAMGWFRQAPGKEREFVATISWSGGSTYYTRSVKGRFTISRDNAKNTVYLQMNSLKPDDTAVYYCAAAGLGTVVSEWDYDYDYWGQGTQVTVSS
Assigned Label: no (0)

Binder: tcTRP9_(3)-VHH678_(3) (VHH, also called tcTRP9x3_VHH6783; construct 678; source: E. coli BL21(DE3)-RIL, purified (Ni-NTA, dialysis into 1x PBS)) VHH: QVQLQESGGGLVQAGGSLRLSCAASGRTFSEYAMGWFRQAPGKEREFVATISWSGGSTYYTRSVKGRFTISRDNAKNTVYLQMNSLKPDDTAVYYCAAAGLGTVVSEWDYDYDYWGQGTQVTVSS
Assigned Label: yes (1)

Binder: tcTRP9_(3)-VHH680_(3) (VHH, also called tcTRP9x3_VHH6803; construct 680; source: E. coli BL21(DE3)-RIL, purified (Ni-NTA, dialysis into 1x PBS)) VHH: QVQLQESGGGLVQAGGSLRLSCAASGRTFSEYAMGWFRQAPGKEREFVATISWSGGSTYYTRSVKGRFTISRDNAKNTVYLQMNSLKPDDTAVYYCAAAGLGTVVSEWDYDYDYWGQGTQVTVSS
Assigned Label: no (0)

Binder: tcTRP9_(3)-VHH684_(3) (VHH, also called tcTRP9x3_VHH6843; construct 684; source: E. coli BL21(DE3)-RIL, purified (Ni-NTA, dialysis into 1x PBS)) VHH: QVQLQESGGGLVQAGGSLRLSCAASGRTFSEYAMGWFRQAPGKEREFVATISWSGGSTYYTRSVKGRFTISRDNAKNTVYLQMNSLKPDDTAVYYCAAAGLGTVVSEWDYDYDYWGQGTQVTVSS
Assigned Label: yes (1)

Binder: tcTRP9x3_VHH685_(3) (VHH, also called construct 685; source: E. coli BL21(DE3)-RIL, purified (Ni-NTA, dialysis into 1x PBS)) VHH: QVQLQESGGGLVQAGGSLRLSCAASGRTFSEYAMGWFRQAPGKEREFVATISWSGGSTYYTRSVKGRFTISRDNAKNTVYLQMNSLKPDDTAVYYCAAAGLGTVVSEWDYDYDYWGQGTQVTVSS
Assigned Label: yes (1)

Binder: tcTRP9_(3)-VHH682_(3) (VHH, also called tcTRP9x3_VHH6823; construct 682; source: E. coli BL21(DE3)-RIL, purified (Ni-NTA, dialysis into 1x PBS)) VHH: QVQLQESGGGLVQAGGSLRLSCAASGRTFSEYAMGWFRQAPGKEREFVATISWSGGSTYYTRSVKGRFTISRDNAKNTVYLQMNSLKPDDTAVYYCAAAGLGTVVSEWDYDYDYWGQGTQVTVSS
Assigned Label: no (0)

For the next question, use this binder.
Q) Consider the binder tcTRP9_(3)-VHH683_(3) (VHH, also called tcTRP9x3_VHH6833; construct 683; source: E. coli BL21(DE3)-RIL, purified (Ni-NTA, dialysis into 1x PBS)) VHH: QVQLQESGGGLVQAGGSLRLSCAASGRTFSEYAMGWFRQAPGKEREFVATISWSGGSTYYTRSVKGRFTISRDNAKNTVYLQMNSLKPDDTAVYYCAAAGLGTVVSEWDYDYDYWGQGTQVTVSS . Is its EC50 strictly less than 3 nM?
A) yes (1)
